Data provenance is paper PMC5384962.

Assay: Study-1 Part-A single ascending dose pharmacokinetics (plasma and urine)
Assay type: in vivo, human
Conditions: human, urine and plasma, oral, 5 mg, Study-1 Part-A, single dose 5 mg fed; geo mean (GeoCV%)
OUTCOME_MEASURE: CL renal
State the result as a value with its unit after it.

Problem: # lookup: CL renal of [O-][n+]1cccc(-c2nc3c(Cl)cccc3cc2[C@@H](Nc2ncnc3cccnc23)C(F)(F)F)c1
Solution: 1.5 mL/min

----------
Assay: Study-1 Part-B multiple ascending dose pharmacokinetics (plasma and urine)
Type: in vivo, human
Conditions: human, plasma, oral, 15 mg, Study-1 Part-B, 15 mg, Day 1; geo mean (GeoCV%); read-out: AUC(0–24)
OUTCOME_MEASURE: AUC(0-t) (µg·h/mL)
Answers are plain numbers, in µg·h/mL.

Problem: Report AUC(0-t) for [O-][n+]1cccc(-c2nc3c(Cl)cccc3cc2[C@@H](Nc2ncnc3cccnc23)C(F)(F)F)c1 please.
Solution: 3.94

----------
Assay: Study-2 multiple-dose day 14 pharmacokinetics (plasma)
Format: in vivo, human
Details: human, plasma, oral; Study-2, 45 mg QD, Day 14; median (range); read-out: tmax
OUTCOME_MEASURE: Tmax (h)
Answers are plain numbers, in h.

Problem: // query Tmax value for entry [O-][n+]1cccc(-c2nc3c(Cl)cccc3cc2[C@@H](Nc2ncnc3cccnc23)C(F)(F)F)c1
Solution: 4

----------
Assay: Study-2 single-dose pharmacokinetics (plasma)
Assay type: in vivo, human
Conditions: human, plasma, oral, 60 mg, Study-2 single dose, 60 mg QD cohort; geo mean (GeoCV%); read-out: AUC(0–t)
OUTCOME_MEASURE: AUC(0-t) (ng·h/mL)
One number for each entry, in ng·h/mL.

Problem: I would be grateful if you could share the reported AUC(0-t) for [O-][n+]1cccc(-c2nc3c(Cl)cccc3cc2[C@@H](Nc2ncnc3cccnc23)C(F)(F)F)c1 .
Solution: 25100

----------
Assay: Study-2 single-dose pharmacokinetics (plasma)
Type: in vivo, human
Details: human, plasma, oral; Study-2 single dose, 90 mg QD cohort; geo mean (GeoCV%); read-out: Cmax
Protocol: These were phase I, randomised, double-blind, placebo-controlled studies designed to evaluate the safety, tolerability, PK and PD profiles of seletalisib following oral administration of single ascending doses and multiple ascending doses. […] Plasma concentrations of seletalisib were measured by high-performance liquid chromatography with tandem mass spectrometry (see Online Resource S1 for further details). […]
OUTCOME_MEASURE: Cmax (ng/mL)
Numbers only, in ng/mL.

Problem: Any idea what its Cmax is? The molecule is [O-][n+]1cccc(-c2nc3c(Cl)cccc3cc2[C@@H](Nc2ncnc3cccnc23)C(F)(F)F)c1 [Seletalisib, seletalisib]
Solution: 1510

----------
Assay: Study-1 Part-B multiple ascending dose pharmacokinetics (plasma and urine)
Assay type: in vivo, human
Conditions: human, plasma, oral, 5 mg, Study-1 Part-B, 5 mg, Day 14; geo mean (GeoCV%); read-out: AUC(0–24)
Description: These were phase I, randomised, double-blind, placebo-controlled studies designed to evaluate the safety, tolerability, PK and PD profiles of seletalisib following oral administration of single ascending doses and multiple ascending doses. […] Plasma concentrations of seletalisib were measured by high-performance liquid chromatography with tandem mass spectrometry (see Online Resource S1 for further details). […]
OUTCOME_MEASURE: AUC(0-t) (ng·h/mL)
Answers are plain numbers, in ng·h/mL.

Problem: Given the molecule [O-][n+]1cccc(-c2nc3c(Cl)cccc3cc2[C@@H](Nc2ncnc3cccnc23)C(F)(F)F)c1 [Seletalisib, seletalisib] , what is its reported AUC(0-t)?
Solution: 2540

----------
Assay: Study-1 Part-B multiple ascending dose pharmacokinetics (plasma and urine)
Assay type: in vivo, human
Conditions: human, plasma, oral; Study-1 Part-B, 5 mg, Day 14; geo mean (GeoCV%)
OUTCOME_MEASURE: half-life (h)
Give bare numbers, in h.

Problem: Quick one: half-life of [O-][n+]1cccc(-c2nc3c(Cl)cccc3cc2[C@@H](Nc2ncnc3cccnc23)C(F)(F)F)c1 ?
Solution: 22

----------
Assay: Study-2 single-dose pharmacokinetics (plasma)
Assay type: in vivo, human
Conditions: human, plasma, oral; Study-2 single dose, 90 mg QD cohort; geo mean (GeoCV%); read-out: Vz/F
OUTCOME_MEASURE: Vd/F (L)
One number for each entry, in L.

Problem: Sample [O-][n+]1cccc(-c2nc3c(Cl)cccc3cc2[C@@H](Nc2ncnc3cccnc23)C(F)(F)F)c1 [Seletalisib, seletalisib] — what was its Vd/F?
Solution: 77.3

----------
Assay: Study-2 single-dose pharmacokinetics (plasma)
Assay type: in vivo, human
Conditions: human, plasma, oral; Study-2 single dose, 30 mg QD cohort; geo mean (GeoCV%); read-out: Vz/F
Description: These were phase I, randomised, double-blind, placebo-controlled studies designed to evaluate the safety, tolerability, PK and PD profiles of seletalisib following oral administration of single ascending doses and multiple ascending doses. […] Plasma concentrations of seletalisib were measured by high-performance liquid chromatography with tandem mass spectrometry (see Online Resource S1 for further details). […]
OUTCOME_MEASURE: Vd/F

Problem: Which Vd/F is reported for this compound? [O-][n+]1cccc(-c2nc3c(Cl)cccc3cc2[C@@H](Nc2ncnc3cccnc23)C(F)(F)F)c1
Solution: 74.4 L

----------
Assay: Study-2 single-dose pharmacokinetics (plasma)
Assay type: in vivo, human
Conditions: human, plasma, oral; Study-2 single dose, 45 mg QD cohort; geo mean (GeoCV%)
OUTCOME_MEASURE: MRT (h)
One number for each entry, in h.

Problem: I would be grateful if you could share the reported MRT for [O-][n+]1cccc(-c2nc3c(Cl)cccc3cc2[C@@H](Nc2ncnc3cccnc23)C(F)(F)F)c1 [Seletalisib, seletalisib] .
Solution: 23

----------
Test: Study-1 Part-A single ascending dose pharmacokinetics (plasma and urine)
Assay type: in vivo, human
Settings: human, plasma, oral, 1 mg, Study-1 Part-A, single dose 1 mg fasted; geo mean (GeoCV%)
OUTCOME_MEASURE: Cmax (ng/mL)
Answers are plain numbers, in ng/mL.

Problem: Quick check: Cmax of [O-][n+]1cccc(-c2nc3c(Cl)cccc3cc2[C@@H](Nc2ncnc3cccnc23)C(F)(F)F)c1 ?
Solution: 26.7

----------
Assay: Study-2 single-dose pharmacokinetics (plasma)
Assay type: in vivo, human
Conditions: human, plasma, oral, 90 mg, Study-2 single dose, 90 mg QD cohort; geo mean (GeoCV%); read-out: AUC(0–24)
Experimental: These were phase I, randomised, double-blind, placebo-controlled studies designed to evaluate the safety, tolerability, PK and PD profiles of seletalisib following oral administration of single ascending doses and multiple ascending doses. […] Plasma concentrations of seletalisib were measured by high-performance liquid chromatography with tandem mass spectrometry (see Online Resource S1 for further details). […]
OUTCOME_MEASURE: AUC(0-t)

Problem: Using the record for [O-][n+]1cccc(-c2nc3c(Cl)cccc3cc2[C@@H](Nc2ncnc3cccnc23)C(F)(F)F)c1 , report its AUC(0-t).
Solution: 19700 ng·h/mL

----------
Test: Study-2 multiple-dose day 14 pharmacokinetics (plasma)
Type: in vivo, human
Settings: human, plasma, oral; Study-2, 30 mg QD, Day 14; geo mean (GeoCV%)
OUTCOME_MEASURE: MRT (h)
One number for each entry, in h.

Problem: Look at this compound and give its reported MRT. [O-][n+]1cccc(-c2nc3c(Cl)cccc3cc2[C@@H](Nc2ncnc3cccnc23)C(F)(F)F)c1
Solution: 24.9

----------
Assay: Study-2 single-dose pharmacokinetics (plasma)
Assay type: in vivo, human
Conditions: human, plasma, oral; Study-2 single dose, 60 mg QD cohort; geo mean (GeoCV%); read-out: t1/2 (converted)
OUTCOME_MEASURE: half-life (h)
Answers are plain numbers, in h.

Problem: Endpoint output: half-life of [O-][n+]1cccc(-c2nc3c(Cl)cccc3cc2[C@@H](Nc2ncnc3cccnc23)C(F)(F)F)c1 . Value?
Solution: 18.1

----------
Assay: Study-1 Part-B multiple ascending dose pharmacokinetics (plasma and urine)
Type: in vivo, human
Details: human, urine and plasma, oral, 5 mg, Study-1 Part-B, 5 mg, Day 1; geo mean (GeoCV%)
OUTCOME_MEASURE: CL renal (mL/min)
Numbers only, in mL/min.

Problem: What CL renal value was documented for this compound, [O-][n+]1cccc(-c2nc3c(Cl)cccc3cc2[C@@H](Nc2ncnc3cccnc23)C(F)(F)F)c1 [Seletalisib, seletalisib] ?
Solution: 2.15

----------
Assay: Study-1 Part-A single ascending dose pharmacokinetics (plasma and urine)
Format: in vivo, human
Conditions: human, plasma, oral, 10 mg, Study-1 Part-A, single dose 10 mg fasted; median (range); read-out: tmax
OUTCOME_MEASURE: Tmax

Problem: Need Tmax of [O-][n+]1cccc(-c2nc3c(Cl)cccc3cc2[C@@H](Nc2ncnc3cccnc23)C(F)(F)F)c1 , thanks.
Solution: 1.77 h

----------
Assay: Study-2 single-dose pharmacokinetics (plasma)
Type: in vivo, human
Details: human, plasma, oral; Study-2 single dose, 45 mg QD cohort; geo mean (GeoCV%)
OUTCOME_MEASURE: AUC (ng·h/mL)
Give bare numbers, in ng·h/mL.

Problem: Data request, read-out AUC, for [O-][n+]1cccc(-c2nc3c(Cl)cccc3cc2[C@@H](Nc2ncnc3cccnc23)C(F)(F)F)c1
Solution: 17300
